test: G protein-coupled receptor (GPCR) small molecule agonists, calcium flux assay: HEK293 wild type cell line counter screen (AID 1920065); conditions: HEK293 WT calcium flux, fluorescence, agonist mode; series mostly up to 57.6 µM
Active and inactive are the calls of the source. Calls come from the whole dose curve.
measured_property: activation

Study these solved cases before continuing.
1. CCC(=O)Nc1ccc(Cl)c(Cl)c1	inactive
2. COS(=O)(=O)c1ccc(C)cc1	inactive
3. CNC(=O)Oc1ccccc1C1OCCO1	inactive
4. BrCCc1ccccc1	inactive
5. CCCC[N+]1(C)CCCC1 (tested in a mixture with another compound)	inactive
6. CC(C)c1ccc(NC(=O)N(C)C)cc1	inactive

Can you share its activation? I mean this compound: C=CC(N)=O inactive
